Value source: ChEMBL document CHEMBL2176944

molecular target: UniProt:O15530; test: Activation of PDK1 using KTFCGTPEYLAPEVRR as substrate and [gamma32P]-ATP/Mg2+ by phosphor imaging analysis relative to control
Sequence (O15530 whole entry): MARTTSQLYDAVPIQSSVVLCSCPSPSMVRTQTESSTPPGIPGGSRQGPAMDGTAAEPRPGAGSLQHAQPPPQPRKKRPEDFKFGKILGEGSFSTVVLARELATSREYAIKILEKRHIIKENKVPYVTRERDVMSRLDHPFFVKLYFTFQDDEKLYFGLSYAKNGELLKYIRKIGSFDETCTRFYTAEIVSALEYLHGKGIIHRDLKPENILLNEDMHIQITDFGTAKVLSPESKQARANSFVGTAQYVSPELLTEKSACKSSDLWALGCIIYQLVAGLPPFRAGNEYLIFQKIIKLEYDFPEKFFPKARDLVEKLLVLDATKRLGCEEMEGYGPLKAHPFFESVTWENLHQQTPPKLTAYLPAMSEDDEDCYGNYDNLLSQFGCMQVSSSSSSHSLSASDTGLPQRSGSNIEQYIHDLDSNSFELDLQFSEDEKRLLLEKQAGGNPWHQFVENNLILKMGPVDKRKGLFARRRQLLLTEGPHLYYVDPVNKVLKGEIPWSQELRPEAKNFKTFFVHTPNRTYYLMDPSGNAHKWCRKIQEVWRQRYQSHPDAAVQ
For each record, write down the corresponding max activation.

Please list max activation recorded for the compound O=C(CC(c1ccc(Cl)cc1)C(C(=O)O)C(=O)O)c1ccc(I)cc1 (racemic)
3.8

Please list max activation recorded for the compound O=C(O)CC(CC(=O)c1cccc(Cl)c1)c1ccccc1 (racemic)
2.5

Please list max activation recorded for the compound O=C(CC(c1ccccc1)C(C(=O)O)C(=O)O)c1cccc(Cl)c1 (racemic)
2.6

Please list max activation recorded for the compound O=C(CC(c1ccccc1)C(C(=O)O)C(=O)O)c1ccc(Cl)cc1 (racemic)
4
